# testSystem: 5-hydroxytryptamine receptor 1A (Homo sapiens, UniProt P08908); further: assay procedure not described here
# Sequence (P08908 whole entry): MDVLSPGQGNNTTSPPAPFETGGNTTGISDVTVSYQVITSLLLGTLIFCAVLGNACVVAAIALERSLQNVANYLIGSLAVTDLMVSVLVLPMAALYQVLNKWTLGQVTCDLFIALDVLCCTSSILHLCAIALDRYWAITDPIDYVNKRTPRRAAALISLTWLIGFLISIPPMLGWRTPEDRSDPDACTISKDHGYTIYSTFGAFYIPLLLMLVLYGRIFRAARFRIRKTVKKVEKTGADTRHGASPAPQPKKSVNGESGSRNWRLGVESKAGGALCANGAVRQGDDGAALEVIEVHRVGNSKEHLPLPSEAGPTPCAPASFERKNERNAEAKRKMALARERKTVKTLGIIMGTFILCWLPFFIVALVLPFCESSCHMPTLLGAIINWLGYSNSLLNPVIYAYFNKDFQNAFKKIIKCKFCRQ
# Format: functional, cell-based
Item-by-item account of AC50
testReadout: AC50

| compound | testReadout | result |
| --- | --- | --- |
| COc1cc2c(cc1OC)C(CCc1ccc(Cl)cc1)N(C)CC2 (stereo not drawn) | AC50 | > 10 µM |
| C=C[C@H]1C[N@@]2CC[C@H]1C[C@@H]2[C@@H](O)c1ccnc2ccc(OC)cc12 | AC50 | > 30 µM |
| CC12CC3CC(C)(C1)CC(N)(C3)C2 [MEMANTINE] | AC50 | > 10 µM |
| CC(C(=O)O)c1ccc(CC2CCCC2=O)cc1 (stereo not drawn) | AC50 | > 30 µM |
| CC(C)[C@H](N)C(=O)OCC(CO)OCn1cnc2c(=O)nc(N)[nH]c21 (stereo partly drawn) | AC50 | > 30 µM |
| C[C@H]1c2cccc(O)c2C(=O)C2=C(O)[C@]3(O)C(=O)C(C(N)=O)=C(O)[C@@H](N(C)C)[C@@H]3[C@@H](O)[C@@H]21 | AC50 | > 10 µM |
| O=C1CN(/N=C/c2ccc(-c3ccc([N+](=O)[O-])cc3)o2)C(O)=N1 | AC50 | > 10 µM |
| Cc1cnc(C(=O)NCCc2ccc(S(=O)(=O)NC(=O)NC3CCCCC3)cc2)cn1 [GLIPIZIDE] | AC50 | > 10 µM |

Values compiled from ChEMBL document CHEMBL5291721.
